# Target: Serine/threonine-protein kinase 26 (Homo sapiens) (UniProt Q9P289);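 note: mean inhibition of MST4 kinase activity, reported from the GSK PKIS inhibitor-set screening panel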
# Sequence (Q9P289 2-416 limits assumed): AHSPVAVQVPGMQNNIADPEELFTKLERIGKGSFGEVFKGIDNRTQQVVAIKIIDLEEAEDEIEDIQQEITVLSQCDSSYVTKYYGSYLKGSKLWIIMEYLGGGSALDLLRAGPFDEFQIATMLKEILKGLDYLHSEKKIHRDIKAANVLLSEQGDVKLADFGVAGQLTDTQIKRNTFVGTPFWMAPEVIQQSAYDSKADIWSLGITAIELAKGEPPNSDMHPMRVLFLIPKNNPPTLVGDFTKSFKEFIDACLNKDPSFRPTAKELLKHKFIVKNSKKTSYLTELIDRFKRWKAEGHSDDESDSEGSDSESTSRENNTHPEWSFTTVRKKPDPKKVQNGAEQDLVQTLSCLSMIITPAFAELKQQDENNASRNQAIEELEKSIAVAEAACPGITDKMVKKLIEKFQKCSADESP
# Condition info: at 1 µM
Readout label: inhibition (%)

Input smiles | Units text | Value observed
O=C1NC(=O)C(c2cccc(Cl)c2)=C1Nc1ccc(O)c(Cl)c1 | % | 11.2
CC(C)=Cc1cccc2c1/C(=N/Nc1ccc(S(N)(=O)=O)cc1)C(=O)N2 | % | 35.5
Fc1cccc(COc2ccc(Nc3ncnc4cc(-c5ccc[nH]5)sc34)cc2Cl)c1 | % | 3.26
CCn1c(-c2nonc2N)nc2cnc(Oc3cccc(NC(=O)c4ccc(OCCN5CCOCC5)cc4)c3)cc21 | % | 2.57
COc1ccccc1Nc1ncc(-c2ccccc2)o1 | % | 0.41
O=C1NC(=O)C(c2ccc(Cl)cc2)=C1Nc1ccc(Cl)c(C(=O)O)c1 | % | -0.4
CCn1c(-c2nonc2N)nc2ccncc21 | % | 0.2
COc1cc(C=NNc2ncnc3c2cnn3-c2ccccc2)ccc1O | % | 13.3
c1cnn2ncc(-c3ccnc(Nc4ccc5c(c4)OCCO5)n3)c2c1 | % | -0.78
O=C1NC(=O)C(N2CCc3ccccc32)=C1c1ccc(Cl)cc1 | % | -1.05
NCc1ccc(-c2nc(-c3ccc(Cl)c(O)c3)c(-c3ccncc3)[nH]2)cc1 | % | 0.12
CCN1CCC(CC(=O)Nc2n[nH]c3nc(-c4cccs4)c(Br)cc23)CC1 | % | 12
CN1CCC(C(=O)Nc2n[nH]c3nnc(-c4ccccc4)cc23)CC1 | % | 1.63
Nc1ncnc2occ(-c3ccc(NC(=O)Nc4cccc(C(F)(F)F)c4)cc3)c12 | % | -4.13
CCn1c(-c2nonc2N)nc2c(C#CC(C)(C)O)nc(CN3CCCC3)cc21 | % | 7.65
COc1cc2ncn(-c3cc(OCc4ccccc4Cl)c(C(N)=O)s3)c2cc1OC | % | -3.28

----------
# Target: RAC-gamma serine/threonine-protein kinase (Homo sapiens)
# Condition info: at 0.1 µM
# Description: GSK_PKIS: AKT3 mean inhibition at 0.1 uM [Nanosyn]
# inhibition per record follows
Readout label: inhibition (%)

Compound | Value observed
COc1ccc2cc(-c3c(-c4ccncc4)nc(-c4ccc([S+](C)[O-])cc4)n3C)ccc2c1 (stereo unspecified) | 1.23
COc1cc2ncn(-c3cc(O[C@H](C)c4ccccc4Cl)c(C(N)=O)s3)c2cc1OC | 0.81
Cn1cc(C=C2C(=O)Nc3cccnc32)c2ccccc21 | 1.15
CN1CCC(C(=O)Nc2n[nH]c3nnc(-c4ccccc4)cc23)CC1 | 2.3
CCn1c(-c2nonc2N)nc2ccncc21 | -0.4
O=C1NC(=O)C(c2cccc(Cl)c2)=C1Nc1ccc(O)c(Cl)c1 | 0.98
COc1cc2ncn(-c3cc(OCc4ccccc4C(F)(F)F)c(C(N)=O)s3)c2cc1OC | -3.14
NS(=O)(=O)c1cccc(-c2ccc3c(NC(=O)C4CC4)n[nH]c3c2)c1 | -1.31
CS(=O)(=O)CCN(CC#N)Cc1ccc(-c2ccc3ncnc(Nc4ccc(OCc5cccc(F)c5)c(Cl)c4)c3c2)o1 | -3.18
Fc1cccc(COc2ccc(Nc3ncnc4sc(-c5cccs5)cc34)cc2Cl)c1 | 0.23
COc1ccc(COc2ccc(Cc3cnc(N)nc3N)cc2OC)cc1 | 0.61

----------
# Target: Serine/threonine-protein kinase SIK2 (Homo sapiens) (UniProt Q9H0K1)
# Sequence (Q9H0K1 whole entry, looked up): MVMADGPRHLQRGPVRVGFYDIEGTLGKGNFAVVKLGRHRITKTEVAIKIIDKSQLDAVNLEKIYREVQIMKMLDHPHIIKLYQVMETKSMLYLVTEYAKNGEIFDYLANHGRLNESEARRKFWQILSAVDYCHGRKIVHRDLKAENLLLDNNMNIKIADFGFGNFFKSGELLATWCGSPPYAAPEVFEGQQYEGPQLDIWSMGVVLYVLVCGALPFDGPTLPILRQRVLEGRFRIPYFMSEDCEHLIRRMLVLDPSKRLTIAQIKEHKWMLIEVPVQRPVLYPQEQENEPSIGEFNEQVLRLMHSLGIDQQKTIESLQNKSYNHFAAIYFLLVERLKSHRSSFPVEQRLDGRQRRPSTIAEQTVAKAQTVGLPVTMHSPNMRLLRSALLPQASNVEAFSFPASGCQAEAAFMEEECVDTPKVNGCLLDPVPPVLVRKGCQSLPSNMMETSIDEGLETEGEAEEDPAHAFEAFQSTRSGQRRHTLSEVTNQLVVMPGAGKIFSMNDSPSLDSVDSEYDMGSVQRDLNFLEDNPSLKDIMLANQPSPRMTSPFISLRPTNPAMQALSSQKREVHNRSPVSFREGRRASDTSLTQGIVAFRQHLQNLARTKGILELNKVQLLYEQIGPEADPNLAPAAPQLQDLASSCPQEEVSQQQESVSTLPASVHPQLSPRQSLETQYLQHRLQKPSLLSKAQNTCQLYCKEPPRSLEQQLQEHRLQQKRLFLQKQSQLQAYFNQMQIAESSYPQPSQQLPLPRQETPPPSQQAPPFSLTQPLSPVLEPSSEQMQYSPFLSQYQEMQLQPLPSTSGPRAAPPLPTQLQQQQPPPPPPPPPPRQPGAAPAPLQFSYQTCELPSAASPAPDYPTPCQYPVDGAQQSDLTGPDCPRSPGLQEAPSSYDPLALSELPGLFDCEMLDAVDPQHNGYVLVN
# Condition info: at 0.1 µM
# Description: GSK_PKIS: SNF1LK2 (QIK) mean inhibition at 0.1 uM [Nanosyn]
# key: entry, value: inhibition

Input smiles | inhibition, %
COc1ccc(-c2nn3ncccc3c2-c2ccnc(Nc3ccc(Cl)c(C(F)(F)F)c3)n2)cc1 | 5.44
CCCN1CCC(Oc2cc(Nc3nc(Nc4cccc(F)c4C(N)=O)c4cc[nH]c4n3)c(OC)cc2Cl)CC1 | -0.16
O=C1NC(=O)C(c2ccccc2Cl)=C1Nc1cccc(O)c1 | 8.17
c1cnn2ncc(-c3ccnc(Nc4ccc5c(c4)OCCO5)n3)c2c1 | 11.1
Cn1cc(C=C2C(=O)Nc3cccnc32)c2ccccc21 | 2.86
COc1cc2ncn(-c3cc(OCc4ccccc4C(F)(F)F)c(C(N)=O)s3)c2cc1OC | 5.82
CCn1c(-c2nonc2N)nc2cncc(C(=O)N3CC[C@H](N)C3)c21 | 4.34
Nc1ncnc2occ(-c3ccc(NC(=O)Nc4cccc(C(F)(F)F)c4)cc3)c12 | 4.8
Cc1nnc(-c2ccc(C)c(-c3ccc(C(=O)Nc4cccc(C#N)c4)cc3)c2)o1 | 4.14

Reference for the values: ChEMBL document CHEMBL1961873
